Target: PPARG/RXRA LBD heterodimer (Homo sapiens, UniProt P37231)
Construct: His-TEV-Q203-Y477; Uniprot ID P37231-2; made in house; host or cells: E. coli
Sequence (P37231 231-505): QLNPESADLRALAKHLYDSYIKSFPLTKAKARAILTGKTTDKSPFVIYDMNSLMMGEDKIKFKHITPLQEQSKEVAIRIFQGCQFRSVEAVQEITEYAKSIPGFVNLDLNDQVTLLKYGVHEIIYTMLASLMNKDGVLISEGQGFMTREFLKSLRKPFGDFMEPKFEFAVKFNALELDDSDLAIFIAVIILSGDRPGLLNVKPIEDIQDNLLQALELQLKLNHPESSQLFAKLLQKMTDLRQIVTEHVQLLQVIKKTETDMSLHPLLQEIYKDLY
Sequence (P19793 228-462 partner): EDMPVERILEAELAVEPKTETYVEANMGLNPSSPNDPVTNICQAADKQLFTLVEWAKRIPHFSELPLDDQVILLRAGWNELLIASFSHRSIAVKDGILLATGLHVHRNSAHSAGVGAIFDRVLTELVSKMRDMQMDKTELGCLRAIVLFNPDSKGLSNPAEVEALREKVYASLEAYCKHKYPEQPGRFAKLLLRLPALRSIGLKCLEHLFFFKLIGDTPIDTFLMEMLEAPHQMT
Sequence (O75376 2251-2273 partner): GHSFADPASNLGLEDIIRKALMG
Assay: PPARγ-NCOR1 recruitment assay (TR-FRET, biotinylated NCOR1 ID2 peptide)
Assay type: biochemical
Conditions: 80 nM Rosiglitazone, 3 hours, read-out: PPARG-NCOR recruitment assay EC50
Endpoint name: EC50

>>> reading("Cn1cc(-c2c(F)cc3[nH]c(-c4cc(C#N)ccc4Cl)cc(=O)c3c2F)cn1")
"100 to 1000 nM"
>>> reading("N#Cc1ccc(Cl)c(-c2cc(=O)c3c(F)c(-c4cnn(C(F)(F)F)c4)c(F)cc3[nH]2)c1")
"100 to 1000 nM"
>>> reading("CN(C)C(=O)c1cccc(-c2c(F)cc3[nH]c(-c4cc(C#N)ccc4Cl)cc(=O)c3c2F)n1")
"1000 to 10000 nM"
>>> reading("N#Cc1ccc(Cl)c(-c2cc(=O)c3ccccc3[nH]2)c1")
"1000 to 10000 nM"

Next, consider the following compound.
Any idea what EC50 came out for CN(C)C(=O)[C@@H]1CCN(c2c(F)cc3[nH]c(-c4cc(C#N)ccc4Cl)cc(=O)c3c2F)C1 on PPARG/RXRA LBD heterodimer (Homo sapiens, UniProt P37231)?
100 to 1000 nM

###

// reported pEC50 for each item listed
Biological target: PPARG/RXRA LBD heterodimer (Homo sapiens)
Construct: His-TEV-Q203-Y477; Uniprot ID P37231-2; made in house; host or cells: E. coli
Assay: PPARγ-NCOR1 recruitment assay (TR-FRET, biotinylated NCOR1 ID2 peptide)
Format: biochemical
Settings: 80 nM Rosiglitazone, 3 hours, read-out: PPARG-NCOR recruitment assay EC50
pEC50: −log10 of the molar value.

>>> reading("Cc1cn(-c2c(F)cc3[nH]c(-c4cc(C#N)ccc4Cl)cc(=O)c3c2F)cn1")
"6.00 to 7.00"
>>> reading("N#Cc1ccc(-c2c(F)cc3[nH]c(-c4cc(C#N)ccc4Cl)cc(=O)c3c2F)cc1")
"6.00 to 7.00"
>>> reading("N#Cc1ccc(Cl)c(-c2cc(=O)c3c(F)c(-c4cc[nH]n4)c(F)cc3[nH]2)c1")
"6.00 to 7.00"
>>> reading("N#Cc1ccc(Cl)c(-c2cc(=O)c3c(F)c(C4=CCNCC4)c(F)cc3[nH]2)c1")
"5.00 to 6.00"
>>> reading("N#Cc1ccc(Cl)c(-c2[nH]c3cc(F)cc(F)c3c(=O)c2Cl)c1")
"< 5.00"
>>> reading("CN(C)C(=O)N1CCN(c2c(F)cc3[nH]c(-c4cc(C#N)ccc4Cl)cc(=O)c3c2F)CC1")
"5.00 to 6.00"
>>> reading("N#Cc1cccc(-c2c(F)cc3[nH]c(-c4cc(C#N)ccc4Cl)cc(=O)c3c2F)c1")
"7.00 to 8.00"
>>> reading("CN1CC2(C1)CN(c1c(F)cc3[nH]c(-c4cc(C#N)ccc4Cl)cc(=O)c3c1F)C2")
"< 5.00"
>>> reading("N#Cc1ccc(Cl)c(-c2cc(=O)c3c(F)c(-n4ccnc4)c(F)cc3[nH]2)c1")
"5.00 to 6.00"
>>> reading("N#Cc1ccc(Cl)c(-c2cc(=O)c3c(F)c(N4CCOCC4)c(F)cc3[nH]2)c1")
"6.00 to 7.00"

Endpoint output: pEC50 of Cc1ccc(-c2c(F)cc3[nH]c(-c4cc(C#N)ccc4Cl)cc(=O)c3c2F)cn1 . Value?
6.00 to 7.00

Endpoint output: pEC50 of N#Cc1ccc(Cl)c(-c2cc(=O)c3c(F)c(F)ccc3[nH]2)c1 . Value?
< 5.00

Endpoint output: pEC50 of Cc1c(F)cc2[nH]c(-c3cc(C#N)ccc3Cl)cc(=O)c2c1F . Value?
6.00 to 7.00
